Provenance of the data: a melting point compilation (Tetko et al.; mined from patent text by program, amines drawn as free bases though some values may be those of a salt)

| Molecule | melting point |
| --- | --- |
| CCC1(CC)OC(=O)N(c2cccc(Cl)c2)c2ccccc21 | 150 to 151 °C |
| CC(=O)NC1=C(N2CCN(Cc3ccccc3)CC2)C(=O)c2ccccc2C1=O | 153 to 155 °C |
| CSCC(C)(C)c1nnc(N)s1 | 117 to 120 °C |
| CN1CCC[C@H]1c1cnc(Cl)cc1C(O)(c1ccc(C(C)(C)C)cc1)c1ccc(C(C)(C)C)cc1 | 226 to 230 °C |
| Cn1c(Sc2ccc(C(=O)OCC(C)(C)C)c(Cl)c2)n[nH]c1=O | 138 °C |
| C=C1Cc2c(n(-c3ccccc3)c3ncccc3c2=O)O1 | 259 to 261 °C |
| O=C1NCc2c1c1c3cc(O)ccc3[nH]c1c1[nH]c3ccc(O)cc3c21 | > 330 °C |
| Cc1c(Br)ccc(S(C)(=O)=O)c1C=NO | 192 to 194 °C |
| Cc1ccc(S(=O)(=O)n2c(-c3cn(C)c4ccc(O)cc34)cc3cccnc32)cc1 | 256 to 257 °C |
| COC(=O)c1nc(-c2ccc(Br)c(OC)c2F)cc(NC(C)=O)c1Cl | 164 to 165 °C |
| COc1c(Br)ccc2oc(CNc3ccc(-c4ccc(S(=O)(=O)NC(C(=O)O)C(C)C)cc4)cc3)c(C)c12 (centres undefined) | 194 to 198 °C |
| Cc1c(-c2ccc(Cl)cc2)ccc2nc(C(=O)NC(Cc3ccc(OCc4ccccc4)cc3)C(=O)O)cn12 (centres undefined) | 263 to 264 °C |
| COc1cc(CC(=O)Nc2ccc(C3CN(C(=O)c4ccccc4)CC3C(=O)O)cc2)ccc1NC(=O)Nc1ccccc1C (centres undefined) | 248 °C |
| O=C(NN=Cc1ccc(Cl)cc1)c1cccnc1 | 188 to 190 °C |
| Cc1nc(-c2ccc3c(=O)n(CC(C)C)c(CNC(=O)OC(C)(C)C)c(-c4ccccc4)c3c2)sc1C(=O)O | 184 to 186 °C |
| COc1cccc(-c2ccnc(Nc3cccc(OC(F)(F)C(F)F)c3)n2)c1 | 103 to 104 °C |
| COc1cc(-c2c3c(cc4ccc5c(c24)OCO5)C(=O)NC3)ccc1OCc1ccccc1 | 236 to 239 °C |
| Cc1nc2c(c(=O)[nH]1)-c1ccc(Cl)cc1C(c1ccccc1F)=NC2 | 262 to 264 °C |
| CN1CCC23CC(=O)CCC2(O)C1Cc1cccc(O)c13 (centres undefined) | 233 to 236 °C |

* * *

Here, each record is paired with measured melting point data.

| Compound | melting point |
| --- | --- |
| CCn1c(C2CCCO2)nc2c(N)nc(OCCc3ccccc3)nc21 (stereo not given) | 121 to 123 °C |
| CCCCCC(=O)OC(C)OC1=C(C(=O)Nc2ccccn2)N(C)S(=O)(=O)c2ccccc21 (stereo not given) | 62 to 65 °C |
| CC(C)OC(=O)c1cc(NC(=S)OC(C)C)ccc1Cl | 89 °C |
| CC(C)(C)OC(=O)Nc1ccc(-c2ccccc2F)cc1NC(=O)CC(=O)c1csc(-n2ccnc2)n1 | 115 to 130 °C |
| CC12C=CC(=O)C(N=C=S)=C1C=CC1C2CCC2(C)C(=O)CCC12 (stereo not given) | 146 to 166 °C |
| COc1cc(-c2nc3ccccc3n2Cc2c(Cl)cccc2Cl)cc(OC)c1OC | 157 °C |
| Cc1c(NC(=O)c2ccc(-c3ccc(C(F)(F)F)cc3)cc2)ccc2cc(CN3CCCC3)cnc12 | 220 to 222 °C |
| CC1(C)Cc2ccccc2C=[N+]1[O-] | 70 to 72 °C |
| C=C(C)C(=O)OCCCCc1cc(-c2ccc(OC(=O)C(=C)C)cc2)ccc1OC(=O)C(=C)C | 76 °C |
| CCOC(=O)CC(NC(=O)c1ccccc1)C(=O)c1ccco1 (stereo not given) | 75 to 76 °C |
| O=C1N[C@H](Cc2ccc(C(F)(F)F)cc2)[C@H](c2ccoc2)O1 (racemic) | 111 to 112 °C |
| CC(C)(C)c1cc(C=C2CON(C(N)=O)C2=O)cc(C(C)(C)C)c1O | 178 to 181 °C |
| CS(=O)(=O)Nc1ccc(N2CCC(O)CC2)cc1 | 126 to 129 °C |
| COC(=O)c1nc(Cl)c(Cl)c(N)c1OC | 119 to 121 °C |
| CCC(=O)[C@@H](NC(=O)OCc1ccccc1)[C@@H](C)CC | 57 to 58 °C |
| O=C(O)c1ccc(COCc2csc3nc(C(=O)NCc4ccccc4)[nH]c(=O)c23)cc1 | 268 to 269 °C |
| N#CCc1nn(-c2ccccn2)c(N)c1C#N | 178 to 179 °C |
| O=C1c2ccccc2C(O)(c2ccc(Cl)cc2)N1Cc1ccc([N+](=O)[O-])cc1 (stereo not given) | 197 to 200 °C |
| Fc1ccc(-c2cccs2)cc1 | 51 to 52 °C |
| Nc1c(NC(=O)CC23CCCN2CCC3)cnc2ccccc12 | 205 to 209 °C |
| CCCCOC(=O)c1ccc2ccc(C(=O)NCc3ccc(O)c(O)c3)nc2c1OC(=O)C(C)(C)C | 189 °C |
| CC(C)N1C(=O)CC(C(=O)O)C1c1ccccc1 (stereo not given) | 126 to 134 °C |
| CON=C(C)c1ccc(-c2ccc(C(=O)n3ccc4cc(OC)c(OCCN(C)C)cc43)cc2)c(C)c1 | 120 to 121 °C |
| CC[C@H](C)C(=O)O[C@H]1C[C@@H](C)C=C2C=C[C@H](C)[C@H](CCC(=O)C[C@@H](O)CC(=O)O)[C@H]21 | 102 to 103 °C |
| COc1cc2c(cc1OC)-c1cc3cc(O)ccc3n1C2=O | > 260 °C |
| Cn1c(Cl)cccc1=O | 108 °C |
| O=c1[nH]ccc2c1ccc1cc[nH]c12 | 244 to 245 °C |
| Ic1ccnc2c1CCCN2 | 117 to 118 °C |
| Cc1cccc(-c2ccc3ccc(N)nc3n2)c1 | 180 °C |
| O=C(c1ccccc1)c1cccc2cc[nH]c12 | 100 to 104 °C |
| CN(C)C(=O)NC(=CC(=O)Nc1cc(F)c(C#N)cc1F)C(F)(F)F | 138 °C |
| CCC1CC2C3CCC4=CC(=O)CCC4=C3C=CC2(C)C1O (stereo not given) | 139 to 141 °C |
| CCC(C)(C)C(=O)Oc1cc2c(s1)CCN([C@H](C(=O)OC)c1ccccc1Cl)C2 | 98 to 100 °C |
| CN(C)c1ccc(S(=O)(=O)n2c(CCCC(=O)O)cc3nc(Cl)ccc32)c(Cl)c1 | 208 °C |
| CC(C)Oc1cccc(C(CC(=O)O)NS(=O)(=O)c2ccc3ccccc3c2)c1 (stereo not given) | 126 °C |
| COc1cc(OCc2ccccn2)ccc1/C=C/c1cc(/C=C/c2c[nH]c3ccccc23)n[nH]1 | 112 to 116 °C |
| COC[C@@H](OC)[C@@H](OC)[C@H](OC)[C@H](CN(C)C(=O)c1ccc2n1Cc1ccccc1N(C(=O)c1ccc(C3=CCCCC3)c(C)c1)C2)OC | 68 to 83 °C |
| CC1CCC(CCC(=O)O)(CCC(=O)O)C(=O)C1(CCC(=O)O)CCC(=O)O (stereo not given) | 210 to 213 °C |
| Cn1c(C(F)(F)F)cc(=O)n(-c2ccc3snc(C(C)(C)C(=O)NS(C)(=O)=O)c3c2)c1=O | 264 to 265 °C |
| Oc1c(Cl)cc(Cl)cc1CNc1cnsn1 | 131 to 132 °C |
